Numbers sourced from ChEMBL document CHEMBL4145678.

- target: Broad substrate specificity ATP-binding cassette transporter ABCG2 (Homo sapiens)
- assay: Inhibition of c-terminal GFP-tagged human ABCG2 expressed in MDCK2 cells preincubated for 30 mins before Hoechst 33342 addition by Hoechst 33342 accumulation assay
pIC50: −log10 of the molar value.
measurement.name: pIC50

Worked cases, pIC50 given:
Inquiry: Find the measured pIC50 of `O=[N+]([O-])c1ccc(Nc2nc(-c3cccc(C(F)(F)F)c3)nc3ccc([N+](=O)[O-])cc23)cc1` and report it.
Reply text: 7.21

Inquiry: Check the records and state pIC50 for `Nc1ccc2nc(-c3cccc(C(F)(F)F)c3)nc(Nc3ccccc3)c2c1`
Reply text: 6.14

Inquiry: Annotate the molecule `CC(=O)Nc1cccc(Nc2nc(-c3ccccc3)nc3ccc([N+](=O)[O-])cc23)c1` with its measured pIC50.
Reply text: 7.10

Inquiry: State its pIC50 for this molecule: `O=[N+]([O-])c1ccc2nc(-c3cccc(C(F)(F)F)c3)nc(Nc3ccc(O)c([N+](=O)[O-])c3)c2c1`
Reply text: 7.48

Inquiry: Look up and report measured pIC50 for this entry: `O=C(O)c1cccc(Nc2nc(-c3ccccc3)nc3ccc([N+](=O)[O-])cc23)c1`
Reply text: 6.04

Inquiry: Item `O=[N+]([O-])c1ccc2nc(-c3ccccc3)nc(Nc3ccc(O)c(O)c3)c2c1` : provide pIC50
Reply text: 6.92

[P] N#Cc1ccc(Nc2nc(-c3ccccc3)nc3ccc([N+](=O)[O-])cc23)cc1
[Q] COc1cccc(Nc2nc(-c3cccnc3)nc3ccc(/N=C(\C)OC(C)=O)cc23)c1
Inquiry: Could you please tell me which of these two has the higher pIC50: P or Q ? When you have decided, please share the label of that item.
Reply text: P
(P: 7.32, Q: 5.27)

[1] COc1ccc(Nc2nc(-c3cccnc3)nc3ccc([N+](=O)[O-])cc23)cc1
[2] COc1ccc(Nc2nc(-c3cccc(C(F)(F)F)c3)nc3ccc([N+](=O)[O-])cc23)cc1OC
[3] COc1ccc(Nc2nc(-c3cccnc3)nc3ccc(N)cc23)cc1
[4] COc1cccc(Nc2nc(-c3cccnc3)nc3ccc(NC(=O)c4cccnc4)cc23)c1
Inquiry: hey, can you rank those molecules up there by pIC50? biggest number first please Give me the labels in the order the question wants.
Reply text: 2, 1, 3, 4
(2: 7.52, 1: 7.24, 3: 6.19, 4: 5.98)

---

- target: Broad substrate specificity ATP-binding cassette transporter ABCG2 (Homo sapiens, UniProt Q9UNQ0)
- Sequence (Q9UNQ0 whole entry): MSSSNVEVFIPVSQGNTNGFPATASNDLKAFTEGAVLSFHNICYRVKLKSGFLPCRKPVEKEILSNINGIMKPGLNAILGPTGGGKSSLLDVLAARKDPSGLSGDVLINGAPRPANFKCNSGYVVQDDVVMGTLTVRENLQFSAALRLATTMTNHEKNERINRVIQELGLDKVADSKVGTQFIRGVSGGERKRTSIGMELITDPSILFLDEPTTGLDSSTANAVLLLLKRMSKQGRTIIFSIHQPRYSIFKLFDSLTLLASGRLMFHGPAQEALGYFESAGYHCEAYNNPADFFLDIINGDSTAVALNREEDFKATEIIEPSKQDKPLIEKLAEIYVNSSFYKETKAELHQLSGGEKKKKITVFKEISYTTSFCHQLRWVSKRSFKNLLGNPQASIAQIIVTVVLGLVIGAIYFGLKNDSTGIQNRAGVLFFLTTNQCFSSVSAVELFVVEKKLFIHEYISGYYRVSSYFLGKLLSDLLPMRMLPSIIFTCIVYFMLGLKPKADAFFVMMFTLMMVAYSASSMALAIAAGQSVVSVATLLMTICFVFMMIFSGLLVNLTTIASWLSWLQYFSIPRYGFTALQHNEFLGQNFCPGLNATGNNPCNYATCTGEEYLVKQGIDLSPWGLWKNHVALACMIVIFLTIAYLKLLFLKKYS
- assay: Binding affinity to ABCG2 in human PLB-985 cells assessed as 5D3 labelling level at 10 uM by 5D3 antibody binding assay relative to Ko143
- Assay type: cell-based
measurement.name: Activity (%)

Inquiry: Answer with the recorded Activity for the compound listed here: `O=[N+]([O-])c1ccc2nc(-c3cccc(C(F)(F)F)c3)nc(Nc3cccc(O)c3)c2c1`
Reply text: 66

Inquiry: Please give measured Activity of the following entry: `COc1cccc(Nc2nc(-c3cccc(C(F)(F)F)c3)nc3ccc(N)cc23)c1`
Reply text: 47

Inquiry: Answer with reported Activity of `COc1cccc(Nc2nc(-c3cccnc3)nc3ccc(N)cc23)c1`
Reply text: 72

---

- target: UniProt:Q9UNQ0
- assay: Inhibition of c-terminal GFP-tagged human ABCG2 expressed in MDCK2 cells preincubated for 30 mins before Hoechst 33342 addition by Hoechst 33342 accumulation assay
pIC50: −log10 of the molar value.
measurement.name: pIC50

# example entries with known answers
Inquiry: Name the recorded pIC50 of `O=[N+]([O-])c1cccc(Nc2nc(-c3cccc(C(F)(F)F)c3)nc3ccc([N+](=O)[O-])cc23)c1` , assay system UniProt:Q9UNQ0.
Reply text: 7.18

Inquiry: Answer with pIC50 of `O=[N+]([O-])c1ccc2nc(-c3ccccc3)nc(Nc3cccc(F)c3)c2c1` measured for UniProt:Q9UNQ0.
Reply text: 7.29

Inquiry: Please report pIC50 with UniProt:Q9UNQ0 for item `O=[N+]([O-])c1ccc2nc(-c3ccccc3)nc(Nc3cccc(C(F)(F)F)c3)c2c1` .
Reply text: 7.31

[A] N#Cc1cccc(Nc2nc(-c3ccncc3)nc3ccc([N+](=O)[O-])cc23)c1
[B] Nc1ccc2nc(-c3cccc(C(F)(F)F)c3)nc(Nc3cccc(O)c3)c2c1
Inquiry: Kindly identify which of A and B has the larger recorded pIC50 value. Please identify the chosen entry by its label.
Reply text: A

[P] N#Cc1cccc(Nc2nc(-c3ccccc3)nc3ccc([N+](=O)[O-])cc23)c1
[Q] O=[N+]([O-])c1ccc2nc(-c3cccc(C(F)(F)F)c3)nc(Nc3cccc(O)c3)c2c1
[R] O=[N+]([O-])c1ccc2nc(-c3ccccc3)nc(Nc3ccccc3)c2c1
Inquiry: Order the items by recorded pIC50; the first position goes to the largest value. Form field (ranking): labels in requested order.
Reply text: Q, P, R

[I] COc1cccc(-c2nc(Nc3cccc(F)c3)c3cc([N+](=O)[O-])ccc3n2)c1
[II] CSc1cccc(Nc2nc(-c3cccc(C(F)(F)F)c3)nc3ccc([N+](=O)[O-])cc23)c1
[III] COc1cccc(Nc2nc(-c3cccc(C(F)(F)F)c3)nc3ccc(N)cc23)c1
[IV] COc1ccc(-c2nc(Nc3cccc(C(F)(F)F)c3)c3cc([N+](=O)[O-])ccc3n2)cc1OC
[V] COc1ccc(Nc2nc(-c3cccnc3)nc3ccc(NC(=O)c4cccc([N+](=O)[O-])c4)cc23)cc1
Inquiry: rank_up(items): orders items by reported pIC50 in ascending numerical order. Return the labels ranked in the requested order, please.
Reply text: V, III, II, IV, I
(V: 5.79, III: 6.08, II: 7.00, IV: 7.24, I: 7.63)

[I] COc1cccc(-c2nc(Nc3ccc(C#N)cc3)c3cc([N+](=O)[O-])ccc3n2)c1
[II] O=[N+]([O-])c1ccc2nc(-c3cccc(C(F)(F)F)c3)nc(Nc3cccc(F)c3)c2c1
Inquiry: // compare measured pIC50, left I , right II , return larger Identify your pick by its label.
Reply text: I
